- System: Klebsiella pneumoniae
- ASSAY_COMMENT: Antimicrobial activity against Klebsiella pneumoniae KP63 after 18 hrs by rapid INT colorimetric assay
- Format: functional
- TEST_CONTEXT: KP63, 18 h
REPORTED_ENDPOINT: MIC (µg/mL)
// return numeric value only (unit: µg/mL, not printed)

Some solved cases for reference:
>>> df
                           substance_smiles  reported_endpoint  unit_descriptor  reported_measurement
0  CC1=C(c2c(C)cc(O)c3c2C(=O)C(c2c(O)c4c(C)cccc4oc2=O)=C(c2c(O)c4c(C)cccc4oc2=O)C3=O)C(=O)c2c(O)cccc2C1=O                MIC            µg/mL                    32
1  CCn1cc(C(=O)O)c(=O)c2cc(F)c(N3CCNCC3)cc21                MIC            µg/mL                    16

Attention now shifts to the item below.
## Task Data request, read-out MIC, for CC(C)=CCc1c(O)ccc(C(=O)/C=C/c2ccc(O)cc2)c1O
## Result 16
